Assay system: human RORγ (Homo sapiens)
Construct: human RORγ, from Ser253 to Lys518; expressed in transfected cells; host or cells: CHO cells (Chinese hamster ovary), transient co-transfection with pG5-Luc
Sequence (P51449 253-518): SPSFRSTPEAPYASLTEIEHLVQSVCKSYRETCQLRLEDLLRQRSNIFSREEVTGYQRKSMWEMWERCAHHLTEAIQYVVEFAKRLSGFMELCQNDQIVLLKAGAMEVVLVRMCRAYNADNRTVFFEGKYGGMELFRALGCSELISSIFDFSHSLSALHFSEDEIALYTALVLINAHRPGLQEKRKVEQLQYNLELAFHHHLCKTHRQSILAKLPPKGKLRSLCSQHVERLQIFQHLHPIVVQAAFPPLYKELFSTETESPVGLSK
Assay explanation: In vitro assay of inhibitory effect against RORγ transcriptional activity (GAL4-hRORγ LBD luciferase reporter gene assay in CHO cells)
Format: cell-based
Test context: GAL4-hRORγ LBD / pG5-Luc in CHO cells, 2 days incubation
Method: In Vitro Assay of Inhibitory Effect Against RORγ Transcriptional Activity Inhibitory effect of a test article on transcriptional activity of RORγ was measured by means of the following reporter gene assay. […] RORγ transcriptional activity was detected as the intracellular luciferase activity using SteadyLite HTS Reporter Gene Assay System (Perkin Elmer). […] After the incubation at room temperature for 10 minutes, luminescence of each well was measured by a microplate reader. […]
pEC50: −log10 of the molar value.
Measured quantity: pEC50

Reference set, count: 4
Compound	Measured value
CC(C)C1=CN(CC(=O)O)C(=O)N[C@]1(C)c1ccc(CCC(C)(C)C)c(Cl)c1 [Example 93]	5.67
CC(C)(C)CCc1ccc(C2(C)NC(=O)N(C3CCC3)C=C2C(C)(C)CCC(=O)O)cc1Cl (single isomer, unassigned) [Example 184]	7.96
CC1=CN(CCCC(=O)O)C(=O)N[C@@]1(C)c1ccc(CCC(C)(C)C)c(Cl)c1 [Example 61]	6.84
CC(C)(C)CCc1ccc(C2(C)NC(=O)N([C@H]3C[C@H](C(=O)O)C3)C=C2C(C)(C)CCCO)cc1Cl (single isomer, unassigned) [Example 180]	7.49

I. CC(C)(C)CCc1ccc([C@]2(C)NC(=O)N([C@H]3C[C@H](C(=O)O)C3)C=C2C2CC(F)(F)C2)cc1Cl [Example 96]
II. CC(C)C1=CN(CCC(=O)O)C(=O)N[C@@]1(C)c1ccc(OCCC(F)(F)F)c(Cl)c1 [Example 140]
Incoming: // returns I or II , whichever has the lower pEC50 Bench note: the answer is the label of the chosen record.
Outgoing: II

----------
Assay system: human RORγ (Homo sapiens, UniProt P51449)
Construct: human RORγ, from Ser253 to Lys518; expressed in transfected cells; host or cells: CHO cells (Chinese hamster ovary), transient co-transfection with pG5-Luc
Assay explanation: In vitro assay of inhibitory effect against RORγ transcriptional activity (GAL4-hRORγ LBD luciferase reporter gene assay in CHO cells)
Type: cell-based
Test context: GAL4-hRORγ LBD luciferase reporter, CHO cells; read-out: LUC EC50 hRORγ
pEC50: −log10 of the molar value.
Measured quantity: pEC50

Reference set, count: 2
Compound	Measured value
CC(C)C1=CN(CCC(=O)O)C(=O)N[C@@]1(C)c1ccc(C=C2CCCCC2)c(Cl)c1 [Example 267]	7.52
CC(C)[C@H]1C[C@@H](c2ccc([C@]3(C)NC(=O)N([C@H]4C[C@H](C(=O)O)C4)C=C3C3CC(F)(F)C3)cc2Cl)C1 [Example 329]	7.13

P. COCC(C)C1=CN(CCC(=O)O)C(=O)N[C@@]1(C)c1ccc(CCC(C)(C)C)c(Cl)c1 (single isomer, unassigned) [Example 306]
Q. CC(C)C1=CN(C2CN(S(C)(=O)=O)CC2C(=O)O)C(=O)N[C@@]1(C)c1ccc(CCC(C)(C)C)c(Cl)c1 (single isomer, unassigned) [Example 240]
R. COCCC1=CN(c2ccc(C(=O)O)c(OC)c2)C(=O)N[C@@]1(C)c1ccc(C2=CCC(C)(C)CC2)c(Cl)c1 [Example 333]
S. COCCC1=CN(CCC(=O)O)C(=O)N[C@@]1(C)c1ccc(CCC(C)(C)C)c(Cl)c1 [Example 211]
Incoming: # desc sort on pEC50 across 4 compounds Give me the labels in the order the question wants.
Outgoing: S, R, P, Q
(S: 7.96, R: 7.64, P: 7.20, Q: 6.97)
